Origin of values: patent US6355644B1

tgt: dopamine D4 receptor (Homo sapiens, UniProt P21917)
Sequence (P21917 whole entry): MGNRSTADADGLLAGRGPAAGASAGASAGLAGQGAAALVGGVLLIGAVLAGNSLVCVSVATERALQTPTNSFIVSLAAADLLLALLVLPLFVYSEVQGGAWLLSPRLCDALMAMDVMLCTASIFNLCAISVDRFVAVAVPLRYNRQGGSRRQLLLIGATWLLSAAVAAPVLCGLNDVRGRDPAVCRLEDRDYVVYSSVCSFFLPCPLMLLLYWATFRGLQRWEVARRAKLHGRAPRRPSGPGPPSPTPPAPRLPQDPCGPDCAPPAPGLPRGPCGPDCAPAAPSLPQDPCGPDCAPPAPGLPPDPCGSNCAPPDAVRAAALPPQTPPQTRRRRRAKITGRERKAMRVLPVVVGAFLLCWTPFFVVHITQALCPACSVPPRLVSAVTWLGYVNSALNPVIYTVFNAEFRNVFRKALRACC
assay.comment: D4 receptor binding assay (3H-YM 09151-2 displacement)
condition.info: CHO cells recombinantly expressing human D4; 0.1 nM 3H-YM 09151-2; 25° C.
endpoint.label: pKi
// pKi: -log10(molar conc.)

Problem: Value lookup for pKi; key = C=C[C@@H]1Cc2ccccc2N1C(=O)CN1CCN(Cc2ccc(Cl)cc2)CC1
Solution: 8.30

Problem: Field request: pKi | item: Cc1ccc(CN2CCN(CC(=O)N3c4ccccc4[C@H]4CCCC[C@H]43)CC2)cc1 (relative stereo)
Solution: 7.96

New cases:
Problem: Fill in the blank: the reported pKi of Cc1ccc(CN2CCN(CC(=O)N3CC(C)c4ccccc43)CC2)cc1 (stereo not shown) is ____.
Solution: 7.03

Problem: Param item = COC(=O)C1Cc2ccccc2N1C(=O)CN1CCN(Cc2ccc(Cl)cc2)CC1 (stereo not shown) ; retrieve measured pKi.
Solution: 8.30

====

tgt: dopamine D4 receptor (Homo sapiens, UniProt P21917)
assay.comment: D4 receptor binding assay (3H-YM 09151-2 displacement)
condition.info: CHO cells recombinantly expressing human D4; 0.1 nM 3H-YM 09151-2; 25° C.
The following compounds are shown together with reported pKi values.
Reminder that pKi means the negative base-10 logarithm of the concentration expressed in mol/L.

Problem: Find the recorded pKi belonging to Cc1ccc(CN2CCN(CC(=O)N3c4ccccc4[C@H](C)[C@@H]3C)CC2)cc1 and report it.
Solution: 7.15

New cases:
Problem: Given the entry Cc1ccc(CN2CCN(CC(=O)N3c4ccccc4[C@@H](C)[C@H]3C)CC2)cc1 , report its measured pKi.
Solution: 8.70

Problem: What does the record list as pKi for COc1ccc(Cl)cc1CN1CCN(CC(=O)N2c3ccccc3C(C)C2C)CC1 (stereo not drawn) ?
Solution: 7.66

====

tgt: dopamine D2 receptor (Chlorocebus aethiops, UniProt P52702)
Sequence (P52702 whole entry): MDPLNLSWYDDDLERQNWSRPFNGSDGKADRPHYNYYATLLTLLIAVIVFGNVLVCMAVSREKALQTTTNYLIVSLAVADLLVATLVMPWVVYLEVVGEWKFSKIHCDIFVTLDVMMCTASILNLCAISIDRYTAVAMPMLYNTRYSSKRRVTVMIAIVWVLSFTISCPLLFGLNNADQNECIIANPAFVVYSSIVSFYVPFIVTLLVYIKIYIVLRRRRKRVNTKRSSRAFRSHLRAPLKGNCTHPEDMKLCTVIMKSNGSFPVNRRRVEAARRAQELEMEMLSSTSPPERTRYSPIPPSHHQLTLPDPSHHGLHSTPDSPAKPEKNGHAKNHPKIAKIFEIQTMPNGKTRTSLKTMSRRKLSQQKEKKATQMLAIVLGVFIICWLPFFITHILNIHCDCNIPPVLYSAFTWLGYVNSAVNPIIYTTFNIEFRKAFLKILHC
assay.comment: D2 receptor binding assay (3H-YM 09151-2 displacement)
condition.info: CHO cells recombinantly expressing primate D2; 0.1 nM 3H-YM 09151-2; 25° C.
Experimental: Determination of D2 and D4 Receptor Binding Activity The following assay is used for determining the binding affinity of compounds to dopamine D4 and D2 receptors. Pellets of Chinese hamster ovary (CHO) cells containing recombinantly expressing primate D2, human D4 or […] receptors are used for the assays. The sample is homogenized in 100 volumes (w/vol) of 0.05 M Tris HCl buffer containing 120 mM NaCl, 5 mM MgCl2 and 1 mM EDTA at 4° C. and pH 7.4. […]
Strictly below 200 nM in Ki: yes (1). Otherwise: no (0).

Worked cases, answers included:
Problem: Does this molecule meet the criterion Ki < 200 nM? Cc1ccc(CN2CCN(CC(=O)N3c4ccccc4[C@@H](C)[C@H]3C)CC2)cc1
Solution: yes (1)

Problem: Please indicate whether the reported Ki of O=C(CN1CCN(Cc2ccc(Cl)cc2)CC1)N1c2ccccc2CC1CO (stereo not shown) is strictly below 200 nM.
Solution: no (0)

Problem: Is Ki strictly under 200 nM for the entry COc1ccc(Cl)cc1CN1CCN(CC(=O)N2c3ccccc3C(C)C2C)CC1 (stereo not shown) ?
Solution: yes (1)

Problem: For O=C(CN1CCN(Cc2ccc(Cl)cc2)CC1)N1c2ccccc2C[C@H]1CF , is the recorded Ki below the cut-off of 200 nM?
Solution: no (0)

Problem: Confirm or reject: Ki of Cc1ccc(CN2CCN(CC(=O)N3c4ccccc4[C@H](C)[C@@H]3C)CC2)cc1 lies strictly below 200 nM
Solution: no (0)

Others:
Problem: Input Cc1ccc(CN2CCN(CC(=O)N3CC(C)c4ccccc43)CC2)cc1 (stereo not shown) ; condition: Ki strictly below 200 nM. Does it hold?
Solution: no (0)
